- Tested On: Fatty-acid amide hydrolase 1 (Rattus norvegicus)
- Sequence (P97612 whole entry): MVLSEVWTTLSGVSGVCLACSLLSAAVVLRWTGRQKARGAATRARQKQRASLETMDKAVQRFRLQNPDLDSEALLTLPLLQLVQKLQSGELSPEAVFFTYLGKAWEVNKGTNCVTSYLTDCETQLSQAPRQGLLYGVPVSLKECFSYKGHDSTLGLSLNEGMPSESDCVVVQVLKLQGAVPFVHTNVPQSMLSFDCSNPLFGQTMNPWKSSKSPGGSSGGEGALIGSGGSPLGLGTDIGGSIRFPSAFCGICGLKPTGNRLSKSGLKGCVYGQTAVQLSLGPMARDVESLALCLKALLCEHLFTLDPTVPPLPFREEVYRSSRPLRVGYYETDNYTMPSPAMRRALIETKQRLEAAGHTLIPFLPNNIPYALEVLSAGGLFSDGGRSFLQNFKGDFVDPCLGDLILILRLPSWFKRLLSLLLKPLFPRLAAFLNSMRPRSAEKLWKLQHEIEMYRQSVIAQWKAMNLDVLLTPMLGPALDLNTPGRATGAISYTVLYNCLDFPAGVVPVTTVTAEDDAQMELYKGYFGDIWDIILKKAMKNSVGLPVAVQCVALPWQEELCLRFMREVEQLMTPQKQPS
- Run Description: Inhibition of recombinant rat FAAH preincubated for 3 hrs
Recorded Endpoint: Ki (µM)
Write the value in µM as a bare number.

**Query** Consider the molecule shown here: O=C(NCCCCc1ccccc1)n1cccn1 What is its recorded Ki?
**Result** 0.29

**Query** Ok, now Cc1cnn(C(=O)N2CCN(Cc3ccc(-c4ccccc4)cc3)CC2)c1
**Result** 0.17

**Query** Next molecule up: Cc1cnn(C(=O)N2CCN(Cc3ccc(OCc4ccccc4)cc3)CC2)c1
**Result** 0.1

**Query** Try this molecule next: O=C(N1CCN(Cc2ccc(OCc3ccccc3)cc2)CC1)n1cccn1
**Result** 0.01

**Query** Same read-out for Cc1cnn(C(=O)N2CCN(Cc3ccccc3)CC2)c1 ?
**Result** 0.25

**Query** Same question, CC(C)(C)OC(=O)N1CCN(C(=O)n2cccn2)CC1 this time
**Result** 0.34

**Query** Entry N#Cc1cnn(C(=O)N2CCCCC2)c1 please
**Result** 0.08

**Query** Here is the next molecule: N#Cc1cnn(C(=O)NCCCCc2ccccc2)c1
**Result** 0.042

**Query** Okay, and CC(C)(C)OC(=O)N1CCN(C(=O)n2cc(C#N)cn2)CC1 ?
**Result** 0.055

**Query** Also O=C(N1CCCCC1)n1cccn1 ?
**Result** 0.75

**Query** Consider next the molecule O=C(N1CCN(Cc2ccc(-c3ccccc3)cc2)CC1)n1cccn1 in the same way.
**Result** 0.012

**Query** N#Cc1cnn(C(=O)N2CCN(Cc3ccccc3)CC2)c1 ?
**Result** 0.075

**Query** Same lookup for N#Cc1cnn(C(=O)N2CCN(Cc3ccc(OCc4ccccc4)cc3)CC2)c1 , please.
**Result** 0.00016

**Query** Can you handle Cc1cnn(C(=O)NCCCCc2ccccc2)c1 next?
**Result** 0.55

**Query** Also O=C(OCCCCc1ccccc1)n1cccn1 ?
**Result** 0.71

**Query** Can you handle O=C(N1CCN(Cc2ccccc2)CC1)n1cccn1 next?
**Result** 0.18

**Query** And Cc1cnn(C(=O)N2CCN(C(=O)OC(C)(C)C)CC2)c1 ?
**Result** 0.85

**Query** Another: N#Cc1cnn(C(=O)N2CCN(Cc3ccc(-c4ccccc4)cc3)CC2)c1
**Result** 0.00019

**Query** Another molecule to check: N#Cc1cnn(C(=O)OCCCCc2ccccc2)c1
**Result** 0.21

* * *

- Run Description: Retention time of the compound
- Assay type: physicochemical
Hi there, I'd appreciate the recorded Retention_time for every entry that follows.
Give a bare numeral; the unit min is implied.

**Query** Entry under review: O=C(Nc1ccc2ccccc2c1)n1cccn1 . Reported Retention_time?
**Result** 3.895

**Query** What do we get for Cc1cnn(C(=O)NCc2ccc(Oc3ccccc3)cc2)c1 ?
**Result** 3.992

**Query** Quick one: O=C(OCc1ccc(-c2ccccc2)cc1)n1cccn1
**Result** 3.999

**Query** Then this compound: Cc1cnn(C(=O)N2CCN(Cc3ccc4ccccc4c3)CC2)c1
**Result** 3.896

**Query** Check Cc1cnn(C(=O)Cc2ccc(-c3ccccc3)cc2)c1 too.
**Result** 3.467

**Query** Now the same for CN(CCN(C)C(=O)n1cccn1)C(=O)OC(C)(C)C
**Result** 3.884

**Query** Repeat with O=C(N1CCN(Cc2ccc3ccccc3c2)CC1)n1cc(Br)cn1
**Result** 3.989

**Query** Thanks! And Cc1cnn(C(=O)N(C)CCN(C)C(=O)OC(C)(C)C)c1 ?
**Result** 3.969

**Query** Further, for N#Cc1cnn(C(=O)NCc2ccc(-c3ccccc3)cc2)c1 ?
**Result** 3.897

**Query** Param item: O=C(Cc1ccc(-c2ccccc2)cc1)n1cccn1
**Result** 4.1

**Query** Lookup O=C(NCc1ccc2ccccc2c1)n1cccn1
**Result** 4.106

**Query** And O=C(OCc1ccc2ccccc2c1)n1cccn1 ?
**Result** 4.008
